Assay system: Trypsin (Bos taurus)
Construct: purchased Wersinton (so in the source)
Sequence (P00760 24-246): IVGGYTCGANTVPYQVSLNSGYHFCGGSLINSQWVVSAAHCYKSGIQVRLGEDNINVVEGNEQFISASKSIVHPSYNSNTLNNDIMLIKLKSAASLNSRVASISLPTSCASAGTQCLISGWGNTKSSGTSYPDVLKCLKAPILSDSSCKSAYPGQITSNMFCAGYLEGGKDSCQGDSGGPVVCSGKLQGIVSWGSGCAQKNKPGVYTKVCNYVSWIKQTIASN
Experimental details: Substrate specificity: enzyme reaction with trypsin, colorimetric
Type: biochemical, Bovine
Assay conditions: 700 nm; So = 0.4 mmol; 37° C., 5 minutes; pH 8.0; pentacyanoamineferroate
Counter-ions that a name gives are not always drawn.
Recorded measurements of absorbance (O.D.) measured, Try, one per entry
The answer is to be given in O.D.; state only the numeric part.

For orientation, consider the following solved cases.
>  <Molecule>
N=C(N)NCCC[C@H](NC(=O)CNC(=O)[C@H](N)CCC(=O)O)C(=O)Nc1ccc(O)c(C(=O)O)c1 [PS-1298, H--D--Glu--Gly--Arg--CHA.2HCl]

>  <absorbance (O.D.) measured, Try>
0.401

$$$$
>  <Molecule>
C[C@H](NC(=O)[C@@H]1CCC(=O)N1)C(=O)N[C@@H](CCCNC(=N)N)C(=O)Nc1ccc(O)c(C(=O)O)c1 [PS-1245, H-PyroGlu-Ala-Arg-CHA]

>  <absorbance (O.D.) measured, Try>
0.676

$$$$

Next:
Write down the reported absorbance (O.D.) measured, Try (system: Trypsin (Bos taurus)) of CCCC[C@H](NC(=O)[C@@H]1CCC(=O)N1)C(=O)N[C@@H](CCCNC(=N)N)C(=O)Nc1ccc(O)c(C(=O)O)c1 [PS-1296, H--PyroGlu--NLeu--Arg--CHA.HCl] 0.656

* * *

Tested on: Kallikrein
Experimental details: Substrate specificity: enzyme reaction with kallikrein, colorimetric
Assay type: biochemical, Swine
Assay conditions: 700 nm; So = 0.4 mmol; 37° C., 5 minutes; pH 7.8; pentacyanoamineferroate
Method: Specificity of each of the new substrates synthesized in Examples 1 through 4 was examined by reacting with each enzyme. Details of reagents used are as described below. […] Buffer, 0.5 ml and 0.1 ml of substrate solution are charged in a silicone-treated hard glass test tube or plastic test tube. […] Then the reaction mixture is allowed to stand at 37° C. for 10 minutes and its absorbance is measured at 405 nm or 700 nm.
Structures can show the parent of a compound that is named as a salt.
Recorded measurements of absorbance (O.D.) measured, KL, one per entry
The answer is to be given in O.D.; state only the numeric part.

For orientation, consider the following solved cases.
>  <Compound>
N=C(N)NCCC[C@H](NC(=O)[C@@H]1CCCN1C(=O)[C@@H]1CCC(=O)N1)C(=O)Nc1ccc(O)c(C(=O)O)c1

>  <Recorded endpoint>
absorbance (O.D.) measured, KL

>  <Unit abbreviation>
O.D.

>  <Numeric result>
0.004

$$$$
>  <Compound>
CC[C@H](NC(=O)[C@@H]1CCC(=O)N1)C(=O)N[C@@H](CCCNC(=N)N)C(=O)Nc1ccc(O)c(C(=O)O)c1 [PS-1294, H--PyroGlu--But--Arg--CHA.HCl]

>  <Recorded endpoint>
absorbance (O.D.) measured, KL

>  <Unit abbreviation>
O.D.

>  <Numeric result>
0.003

$$$$
>  <Compound>
N=C(N)NCCC[C@H](NC(=O)[C@@H]1CCCCN1C(=O)[C@@H]1CCC(=O)N1)C(=O)Nc1ccc(O)c(C(=O)O)c1

>  <Recorded endpoint>
absorbance (O.D.) measured, KL

>  <Unit abbreviation>
O.D.

>  <Numeric result>
0.002

$$$$
>  <Compound>
CC(C)[C@H](NC(=O)[C@@H]1CCC(=O)N1)C(=O)N[C@@H](CCCNC(=N)N)C(=O)Nc1ccc(O)c(C(=O)O)c1 [PS-1293, H--PyroGlu--Val--Arg--CHA.HCl]

>  <Recorded endpoint>
absorbance (O.D.) measured, KL

>  <Unit abbreviation>
O.D.

>  <Numeric result>
0.002

$$$$

Next:
Give the measured absorbance (O.D.) measured, KL for CCCC[C@H](NC(=O)[C@@H]1CCC(=O)N1)C(=O)N[C@@H](CCCNC(=N)N)C(=O)Nc1ccc(O)c(C(=O)O)c1 [PS-1296, H--PyroGlu--NLeu--Arg--CHA.HCl] 0.006

* * *

Assay system: Trypsin (Bos taurus, UniProt P00760)
Construct: purchased Wersinton (so in the source)
Experimental details: Substrate specificity: enzyme reaction with trypsin, colorimetric
Type: biochemical, Bovine
Assay conditions: 700 nm; So = 0.4 mmol; 37° C., 5 minutes; pH 8.0; pentacyanoamineferroate
Structures can show the parent of a compound that is named as a salt.
Recorded measurements of absorbance (O.D.) measured, Try, one per entry
The answer is to be given in O.D.; state only the numeric part.

For orientation, consider the following solved cases.
>  <Molecule>
N=C(N)NCCC[C@H](NC(=O)[C@@H]1CCCCN1C(=O)[C@@H]1CCC(=O)N1)C(=O)Nc1ccc(O)c(C(=O)O)c1 [PS-1292]

>  <Recorded endpoint>
absorbance (O.D.) measured, Try

>  <Numeric result>
0.814

$$$$
>  <Molecule>
CC[C@H](NC(=O)[C@@H]1CCC(=O)N1)C(=O)N[C@@H](CCCNC(=N)N)C(=O)Nc1ccc(O)c(C(=O)O)c1 [PS-1294, H--PyroGlu--But--Arg--CHA.HCl]

>  <Recorded endpoint>
absorbance (O.D.) measured, Try

>  <Numeric result>
0.588

$$$$

Write down the reported absorbance (O.D.) measured, Try (system: Trypsin (Bos taurus, UniProt P00760)) of N=C(N)NCCC[C@H](NC(=O)[C@@H]1CCCN1C(=O)[C@@H]1CCC(=O)N1)C(=O)Nc1ccc(O)c(C(=O)O)c1 [PS-1242, H--PyroGlu--Pro--Arg--CHA] 0.570

Write down the reported absorbance (O.D.) measured, Try (system: Trypsin (Bos taurus, UniProt P00760)) of CCC[C@H](NC(=O)[C@@H]1CCC(=O)N1)C(=O)N[C@@H](CCCNC(=N)N)C(=O)Nc1ccc(O)c(C(=O)O)c1 [PS-1295, H--PyroGlu--NVal--Arg--CHA.HCl] 0.637

Write down the reported absorbance (O.D.) measured, Try (system: Trypsin (Bos taurus, UniProt P00760)) of CC(C)[C@H](NC(=O)[C@@H]1CCC(=O)N1)C(=O)N[C@@H](CCCNC(=N)N)C(=O)Nc1ccc(O)c(C(=O)O)c1 [PS-1293, H--PyroGlu--Val--Arg--CHA.HCl] 0.434

* * *

Recorded measurements of absorbance (O.D.) measured, TH, one per entry
Assay system: Thrombin (Bos taurus, UniProt P00735)
Construct: purchased Mochida Pharmaceutical Company Lot 65146
Experimental details: Substrate specificity: enzyme reaction with thrombin, colorimetric
Format: biochemical, Bovine
Assay conditions: 700 nm; So = 0.4 mmol; 37° C., 5 minutes; pH 8.5; pentacyanoamineferroate
Where a name gives a salt, the structure may show the parent alone.
The answer is to be given in O.D.; state only the numeric part.

>  <Compound>
CC[C@H](NC(=O)[C@@H]1CCC(=O)N1)C(=O)N[C@@H](CCCNC(=N)N)C(=O)Nc1ccc(O)c(C(=O)O)c1 [PS-1294, H--PyroGlu--But--Arg--CHA.HCl]

>  <Assay system>
Thrombin (Bos taurus, UniProt P00735)

>  <Recorded endpoint>
absorbance (O.D.) measured, TH

>  <Numeric result>
0.003

$$$$
>  <Compound>
N=C(N)NCCC[C@H](NC(=O)[C@@H]1CCCN1C(=O)[C@@H]1CCC(=O)N1)C(=O)Nc1ccc(O)c(C(=O)O)c1

>  <Assay system>
Thrombin (Bos taurus, UniProt P00735)

>  <Recorded endpoint>
absorbance (O.D.) measured, TH

>  <Numeric result>
0.022

$$$$
>  <Compound>
N=C(N)NCCC[C@H](NC(=O)CNC(=O)[C@H](N)CCC(=O)O)C(=O)Nc1ccc(O)c(C(=O)O)c1 [PS-1298, H--D--Glu--Gly--Arg--CHA.2HCl]

>  <Assay system>
Thrombin (Bos taurus, UniProt P00735)

>  <Recorded endpoint>
absorbance (O.D.) measured, TH

>  <Numeric result>
0.002

$$$$
>  <Compound>
N=C(N)NCCC[C@H](NC(=O)[C@@H]1CCCCN1C(=O)[C@@H]1CCC(=O)N1)C(=O)Nc1ccc(O)c(C(=O)O)c1

>  <Assay system>
Thrombin (Bos taurus, UniProt P00735)

>  <Recorded endpoint>
absorbance (O.D.) measured, TH

>  <Numeric result>
0.021

$$$$
>  <Compound>
CCCC[C@H](NC(=O)[C@@H]1CCC(=O)N1)C(=O)N[C@@H](CCCNC(=N)N)C(=O)Nc1ccc(O)c(C(=O)O)c1 [PS-1296, H--PyroGlu--NLeu--Arg--CHA.HCl]

>  <Assay system>
Thrombin (Bos taurus, UniProt P00735)

>  <Recorded endpoint>
absorbance (O.D.) measured, TH

>  <Numeric result>
0.002

$$$$

Give the measured absorbance (O.D.) measured, TH for `C[C@H](NC(=O)[C@@H]1CCC(=O)N1)C(=O)N[C@@H](CCCNC(=N)N)C(=O)Nc1ccc(O)c(C(=O)O)c1` 0.006

Give the measured absorbance (O.D.) measured, TH for CC(C)[C@H](NC(=O)[C@@H]1CCC(=O)N1)C(=O)N[C@@H](CCCNC(=N)N)C(=O)Nc1ccc(O)c(C(=O)O)c1 [PS-1293, H--PyroGlu--Val--Arg--CHA.HCl] 0.002

Give the measured absorbance (O.D.) measured, TH for CCC[C@H](NC(=O)[C@@H]1CCC(=O)N1)C(=O)N[C@@H](CCCNC(=N)N)C(=O)Nc1ccc(O)c(C(=O)O)c1 [PS-1295, H--PyroGlu--NVal--Arg--CHA.HCl] 0.002
